Provide the reported IC50 of each item.
# STUDY_SYSTEM: FL_Reg1 (full-length human Regnase-1) phosphorylation by IKKβ (Homo sapiens)
# Construct: made in house; host or cells: Expi293 cells
# Sequence (Q5D1E8 whole entry): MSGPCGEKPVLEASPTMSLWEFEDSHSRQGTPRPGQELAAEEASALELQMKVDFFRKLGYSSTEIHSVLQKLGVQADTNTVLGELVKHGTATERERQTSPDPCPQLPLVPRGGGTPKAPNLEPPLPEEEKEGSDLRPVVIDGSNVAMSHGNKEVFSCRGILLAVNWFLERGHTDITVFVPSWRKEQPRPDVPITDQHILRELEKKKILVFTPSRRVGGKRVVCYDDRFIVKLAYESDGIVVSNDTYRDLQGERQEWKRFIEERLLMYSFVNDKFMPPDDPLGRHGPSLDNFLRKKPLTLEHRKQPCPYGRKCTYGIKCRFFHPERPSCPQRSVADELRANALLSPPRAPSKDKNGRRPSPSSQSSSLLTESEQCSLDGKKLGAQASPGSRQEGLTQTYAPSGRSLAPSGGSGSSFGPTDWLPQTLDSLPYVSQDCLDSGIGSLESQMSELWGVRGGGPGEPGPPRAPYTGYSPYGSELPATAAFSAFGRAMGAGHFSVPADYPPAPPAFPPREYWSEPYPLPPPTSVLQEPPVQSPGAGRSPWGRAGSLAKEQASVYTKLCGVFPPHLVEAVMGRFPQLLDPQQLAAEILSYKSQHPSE
# PROTOCOL_TEXT: Regnase-1 phosphorylation inhibition by compounds (AlphaScreen), IKKβ, full-length Regnase-1
# Format: biochemical
# PROTOCOL_CONDITIONS: Table 14; phosphorylation by IKKβ; read-out: Phosphorylation inhibition FL_Reg1, 50% inhibition concentration (IKKβ)
Residues, ends and D or L forms follow the SMILES beside them.
Answers are plain numbers, in µM.

Need IC50 for each of these molecules.
1. CC[C@H](C)[C@@H]1NC(=O)[C@H](CCCNC(=N)N)NC(=O)[C@H](Cc2ccc(O)cc2)NC(=O)[C@H](Cc2c[nH]c3ccccc23)NC(=O)[C@H](CO)NC(=O)[C@H](CC(N)=O)NC(=O)[C@H](C)N(C)C(=O)C[C@@H](C(=O)N2CCCC2)NC(=O)[C@H](CC(C)C)NC(=O)CNC(=O)[C@H](Cc2c[nH]c3ccccc23)NC1=O [PP22] (HELM PEPTIDE1{[meA].N.S.W.Y.R.I.W.G.L.D.[C1CCN([*:1])C1]}$PEPTIDE1,PEPTIDE1,1:R1-11:R3$$$V2.0)
2. CC[C@H](C)[C@@H]1NC(=O)[C@H](Cc2c[nH]c3ccccc23)NC(=O)[C@H](C)N(C)C(=O)C[C@@H](C(=O)N2CCCC2)NC(=O)[C@H](CCC(=O)O)NC(=O)[C@H](CC(N)=O)NC(=O)[C@H](Cc2c[nH]c3ccccc23)NC(=O)[C@H](Cc2ccccc2)NC(=O)[C@H](CC(=O)O)NC(=O)[C@H](Cc2c[nH]c3ccccc23)NC1=O [PP24] (HELM PEPTIDE1{[meA].W.I.W.D.F.W.N.E.D.[C1CCN([*:1])C1]}$PEPTIDE1,PEPTIDE1,1:R1-10:R3$$$V2.0)
3. CC[C@H](C)[C@@H]1NC(=O)[C@H](C)NC(=O)[C@H](CCCNC(=N)N)NC(=O)[C@H](Cc2ccc(O)cc2)NC(=O)[C@H](Cc2ccc(O)cc2)NC(=O)[C@H](C)NC(=O)[C@H](CO)NC(=O)[C@H](CC(N)=O)NC(=O)[C@H](Cc2ccccc2)NC(=O)[C@H](CC(N)=O)NC(=O)[C@H](C)N(C)C(=O)C[C@@H](C(=O)N2CCCC2)NC(=O)[C@H](Cc2c[nH]c3ccccc23)NC1=O [PP7] (HELM PEPTIDE1{[meA].N.F.N.S.A.Y.Y.R.A.I.W.D.[C1CCN([*:1])C1]}$PEPTIDE1,PEPTIDE1,1:R1-13:R3$$$V2.0)

1: 15; 2: 5.3; 3: 0.8
